Measured values drawn from BindingDB's records for patent US9040518 for this set.

Ileal sodium/bile acid cotransporter (Homo sapiens, UniProt Q12908): reported IC50 for various molecules.
Sequence (Q12908 whole entry): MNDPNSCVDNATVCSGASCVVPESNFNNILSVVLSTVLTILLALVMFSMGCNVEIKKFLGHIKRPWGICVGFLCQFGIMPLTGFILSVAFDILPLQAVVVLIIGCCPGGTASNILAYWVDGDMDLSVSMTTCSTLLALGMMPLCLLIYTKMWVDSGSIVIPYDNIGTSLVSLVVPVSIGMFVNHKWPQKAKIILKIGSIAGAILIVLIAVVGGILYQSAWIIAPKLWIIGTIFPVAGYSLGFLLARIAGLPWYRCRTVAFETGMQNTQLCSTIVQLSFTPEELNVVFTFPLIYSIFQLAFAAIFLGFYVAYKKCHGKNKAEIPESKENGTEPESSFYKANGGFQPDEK
Write the number in µM without appending the unit.

CCCC[C@]1(CC)CS(=O)(=O)c2cc(CCCC(N)=O)c(OC)cc2[C@@H](c2ccccc2)N1    0.073

Proceed to the following item.
Task item: Name the value of IC50 reported for `CCCC[C@]1(CC)CS(=O)(=O)c2cc(CN3CCC[C@H]3C(=O)O)c(OC)cc2[C@@H](c2ccccc2)N1` when tested on Ileal sodium/bile acid cotransporter (Homo sapiens, UniProt Q12908).
Reply: 8.99
